# Measurement Target: Muscarinic acetylcholine receptor M1 (Homo sapiens)
# Sequence (whole entry): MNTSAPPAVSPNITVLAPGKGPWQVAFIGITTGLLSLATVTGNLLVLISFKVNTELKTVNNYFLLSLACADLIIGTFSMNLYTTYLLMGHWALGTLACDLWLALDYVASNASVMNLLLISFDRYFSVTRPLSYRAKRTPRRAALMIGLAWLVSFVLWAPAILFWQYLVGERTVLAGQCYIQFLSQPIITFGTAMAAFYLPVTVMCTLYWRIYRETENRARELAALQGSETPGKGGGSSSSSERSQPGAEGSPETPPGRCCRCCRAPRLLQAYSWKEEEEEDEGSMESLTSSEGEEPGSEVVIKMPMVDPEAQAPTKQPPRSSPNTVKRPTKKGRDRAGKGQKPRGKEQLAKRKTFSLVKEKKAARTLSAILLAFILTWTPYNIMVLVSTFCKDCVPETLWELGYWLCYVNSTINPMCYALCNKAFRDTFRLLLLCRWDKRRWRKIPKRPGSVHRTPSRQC
# Experiment Description: Positive allosteric modulation of human muscarinic M1 receptor expressing in CHONFAT cells assessed as potentiation of acetylcholine-induced calcium mobilization preincubated for 4 mins and measured 4 mins after acetylcholine stimulation by FLIPR assay
# Format: functional, cell-based
Listed here are molecules together with their documented log10 of IP.
Kindly note that the scale is log10 and the underlying IP is in nM.

Molecule: N#CC1(c2ccccn2)CCN(Cc2cc(C(=O)N3CCCc4ccccc43)c(=O)n3ccccc23)CC1
log10 of IP: 3.89

Molecule: Cc1ccc(N2CCN(Cc3cc(C(=O)N[C@H]4CCCC[C@@H]4O)c(=O)n4ccccc34)CC2)nc1
log10 of IP: 2.24

Molecule: N#CC1(c2ccccn2)CCN(Cc2cc(C(=O)NC3CCCOC3)c(=O)n3ccccc23)CC1 (stereo not given)
log10 of IP: 3.41

Molecule: N#CC1(c2ccccn2)CCN(Cc2cc(C(=O)NC3CCCCC3)c(=O)n3ccccc23)CC1
log10 of IP: 2.40

Molecule: COc1ccc(Cn2cc(C(=O)Nc3ccccc3C)c(=O)c3ccccc32)cc1
log10 of IP: 4.36

Molecule: N#CC1(c2ccccn2)CCN(Cc2cc(C(=O)NC3CC3)c(=O)n3ccccc23)CC1
log10 of IP: 3.34

Molecule: CN(C(=O)c1cc(CN2CCC(C#N)(c3ccccn3)CC2)c2ccccn2c1=O)C1CCOCC1
log10 of IP: 3.64

Molecule: CO[C@H]1CCCC[C@@H]1NC(=O)c1cc(CN2CCC(C#N)(c3ccccn3)CC2)c2ccccn2c1=O
log10 of IP: 2.58

Ask | What value of measured log10 of IP is listed for "N#Cc1ccc(N2CCN(Cc3cc(C(=O)N[C@H]4CCCC[C@@H]4O)c(=O)n4ccccc34)CC2)cc1" ?
Reply | 2.39

Ask | Entry under review: "CNC(=O)c1cc(CN2CCC(C#N)(c3ccccn3)CC2)c2ccccn2c1=O" . Reported log10 of IP?
Reply | 3.63

Ask | Would you kindly share the measured log10 of IP for "Cc1cccc2c1N(C(=O)c1cc(CN3CCC(C#N)(c4ccccn4)CC3)c3ccccn3c1=O)CCC2" ?
Reply | 3.64

src = ChEMBL document CHEMBL2203078
